Target Desc: Left-right determination factor 2 (Homo sapiens)
Protocol Text: LEFTY2 binders on small-molecule microarrays, primary screen, biochemical, small-molecule microarray, 635 nm fluorescence scan (AID 1110)
Condition Notes: LEFTY2 binding, higher = more signal
Observed Property: composite z-score

These recorded examples may help you get a feel for the data.
compound=Cc1ccc(S[C@]2(C(=O)NC(C)C)CC(=O)N(C3Cc4ccccc4C3)[C@@H]2c2ccc(CO)cc2)cc1 observed_measurement=-0.873
compound=Cc1ccc(N2C(=O)c3ccccc3[C@](C)(C(=O)O)[C@@H]2c2ccc(CO)cc2)nc1 observed_measurement=-1.64
compound=Cc1ccc(S[C@]2(C(=O)NCCCN(C)C)CC(=O)N(Cc3ccccc3)[C@@H]2c2ccc(CO)cc2I)cc1 observed_measurement=-0.941

Which composite z-score is listed for CCCNC(=O)[C@@H]1c2ccccc2C(=O)N(C2CCCCC2)[C@H]1c1ccc(CO)cc1 ?
0.454

---

Target Desc: Carbonic anhydrase 2 (Homo sapiens) (UniProt P00918)
Protocol Text: CAII small-molecule binders, profiling panel, biochemical, small-molecule microarray, Alexa647-labelled CAII (AID 1122)
Condition Notes: CAII-A647 binding fluorescence, higher = more signal
Observed Property: composite z-score
Form rule: numeric answer, no unit written next to it.

These recorded examples may help you get a feel for the data.
compound=C=C[C@H](OC)[C@@H](OC(=O)Nc1ccc(SC)cc1)c1ccc(O)c(F)c1 observed_property="composite z-score" observed_measurement=0.699
compound=O=C(NCc1ccccc1)c1ccc(Br)cc1[N+](=O)[O-] observed_property="composite z-score" observed_measurement=0.727
compound=[N-]=[N+]=Nc1ccccc1C[C@@]1(C(=O)N2CCOCC2)N=C(c2ccc(OCCCO)cc2)O[C@@H]1c1ccccc1N=[N+]=[N-] observed_property="composite z-score" observed_measurement=0.467
compound=C[N+](C)(C)CCCC[C@@H]1NC(=O)[C@H]2C[C@@H](C(=O)NCc3ccc(F)cc3)[C@@H](c3cccc(OCCO)c3)N2C1=O observed_property="composite z-score" observed_measurement=0.811
compound=C[C@@H]1CC[C@H]2C(=O)N3[C@@H](CC[C@@H](C)[C@@H]3c3cccc(N4CCOCC4)c3)C(=O)N2[C@H]1c1cccc(Br)c1 observed_property="composite z-score" observed_measurement=0.459
compound=Cc1ccc(S(=O)(=O)N2[C@@H](c3ccccc3)C(C(=O)O)=CC[C@H]2c2ccccc2)cc1 observed_property="composite z-score" observed_measurement=0.837
compound=O=C(O)[C@@H]1Cc2c([nH]c3ccccc23)[C@@H](c2ccccc2)N1 observed_property="composite z-score" observed_measurement=-0.0448
compound="C=CCC(OC(C)=O)[C@@H]1[C@@H](N(Cc2ccc(-c3ccccc3)cc2)C(=O)c2ccc(C)cc2)c2cc(OCCCO)ccc2N1C(=O)c1ccc(-c2ccccc2)cc1 (stereo partly specified)" observed_property="composite z-score" observed_measurement=-0.102

Which composite z-score is listed for COC(=O)C1=CC(c2ccc(CO)cc2)=CC(c2cccs2)N(Cc2cccc(OC(F)(F)F)c2)C=C1C(=O)OC (stereo unspecified) ?
0.671

Which composite z-score is listed for CC(c1ccccc1)C(O)C1C=CC2C(=O)N(C)C(=O)C2N1N(c1ccccc1)c1ccccc1 (stereo unspecified) ?
0.507

Which composite z-score is listed for CC(C)(C)OC(=O)CC[C@]1(C(=O)N2CCCCC2)N=C(c2ccc(OCCCO)cc2)O[C@H]1c1ccccc1 ?
0.741

Which composite z-score is listed for O=C/C=C/c1ccc(/C=C/c2ccccc2)cc1 ?
-0.147

Which composite z-score is listed for C=CCC(OC(C)=O)[C@@H]1[C@@H](N(Cc2ccc(-c3ccccc3)cc2)C(=O)c2ccc(-c3ccccc3)cc2)c2cc(OCCCO)ccc2N1C(=O)Cc1ccc(OC)cc1 (stereo partly specified) ?
0.0703

Which composite z-score is listed for COc1cc([C@@H]2N[C@H](C(=O)O)Cc3c2[nH]c2ccccc32)cc(OC)c1OC ?
-0.0165

Which composite z-score is listed for CO[C@H]1COC(=O)[C@H](Cc2ccccc2)NC(=O)CC=C[C@@H](C)[C@H](OC)COC(=O)CC=C[C@@H]1C ?
-0.142

Which composite z-score is listed for COC(=O)[C@@]1(Cc2ccc(OC)cc2)[C@H]2c3cc(C(=O)N(C)C)n(CCc4ccc(OC)c(Br)c4)c3C[C@H]2CN1C(=O)c1ccccc1 ?
0.718
